target: HO-1 (rat spleen) (Rattus norvegicus, UniProt P06762); construct: Spleen microsomes were used as a source of HO-1; from tissue; host or cells: spleen microsomal fraction of adult male Sprague-Dawley rats; assay: HO enzymatic activity, rat spleen microsomal fraction (CO formation from methemalbumin); format: biochemical; settings: IC50 HO-1 (rat spleen/μM), CO formation from methemalbumin, mean ± SD of replicate experiments
Structures can show the parent of a compound that is named as a salt.
Documented IC50 across a set of molecules
measure-name: IC50 (µM)

molecule	comparison-symbol	reported-value
O=C(CCc1ccccc1)Cn1ncnn1 [QC-117, hydrochloride]	=	9.6
O=C(CCc1ccccc1)Cn1cnnn1 [QC-118, hydrochloride]	=	2.6
CN(C)CCC(=O)c1ccc(Cl)cc1	>	100
O=C(CCc1ccc(Br)cc1)Cn1cnc2ccccc21 [QC-62, hydrochloride]	>	100
COc1ccc(CCC(O)Cn2ccnc2)cc1 (centres unmarked) [QC-33, hydrochloride]	=	0.7
CCOC(=O)c1nccn1CC(=O)CCc1ccccc1 [QC-110, hydrochloride]	>	100
CCC(O)Cn1ccnc1 (centres unmarked) [QC-31, hydrochloride]	=	131
c1c[nH]cn1 [QC-43, Imidazole, reference compound]	>	100
Cc1nccn1CC(=O)CCc1ccc(Br)cc1 [QC-61, hydrochloride]	>	100
Nc1ccccc1SC[C@H]1CO[C@@](CCc2ccc(Cl)cc2)(Cn2ccnc2)O1 [QC-22, dihydrochloride]	=	87
O=C(CCn1ccnc1)c1ccc(Cl)cc1 [QC-85, hydrochloride]	=	32

----------
Target: HO-2 (rat brain) (Rattus norvegicus, UniProt P23711)
Construct: brain microsomes were used as a source of HO-2; from tissue; host or cells: brain microsomal fraction of adult male Sprague-Dawley rats
Sequence (P23711 whole entry): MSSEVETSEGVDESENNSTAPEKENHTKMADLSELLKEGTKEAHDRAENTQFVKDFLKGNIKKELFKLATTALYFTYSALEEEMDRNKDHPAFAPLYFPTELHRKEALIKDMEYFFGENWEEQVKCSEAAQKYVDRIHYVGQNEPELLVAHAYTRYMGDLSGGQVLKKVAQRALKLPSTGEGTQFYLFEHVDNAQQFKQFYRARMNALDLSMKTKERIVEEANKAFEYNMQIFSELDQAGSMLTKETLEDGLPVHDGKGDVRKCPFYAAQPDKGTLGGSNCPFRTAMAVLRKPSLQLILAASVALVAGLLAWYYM
Assay: HO enzymatic activity, rat brain microsomal fraction (CO formation from methemalbumin)
Assay type: biochemical
Conditions: IC50 HO-2 (rat brain)/μM), average ± SD of replicate experiments
Method: Incubations for HO activity analysis were done under conditions for which the rate of CO formation (pmol CO×min^−1×mg protein^−1) was linear with respect to time and microsomal protein concentration. […] The values on the abscissa represent the decimal logarithm of the inhibitor's concentration (in μM), whereas the values of the activity on the ordinate are expressed as a percentage of the control experiments without inhibitor. […]
Where a name gives a salt, the structure may show the parent alone.

compound	IC50
O=C(Cn1ccnc1)c1ccc(Cl)cc1 [QC-142, hydrochloride]	20 µM
N#Cc1ncn(CC(=O)CCc2ccccc2)c1C#N [QC-154, hydrochloride]	> 100 µM
c1ccc(C2(Cn3ccnc3)OCCO2)cc1 [QC-246, hydrochloride]	> 100 µM
N#CSC[C@@H]1CO[C@@](CCc2ccc(Cl)cc2)(Cn2ccnc2)O1 [QC-197, hydrochloride]	> 100 µM

----------
Item-by-item account of IC50
Target: HO-1 (rat spleen) (Rattus norvegicus, UniProt P06762)
Construct: Spleen microsomes were used as a source of HO-1; from tissue; host or cells: spleen microsomal fraction of adult male Sprague-Dawley rats
Sequence (P06762 1-289): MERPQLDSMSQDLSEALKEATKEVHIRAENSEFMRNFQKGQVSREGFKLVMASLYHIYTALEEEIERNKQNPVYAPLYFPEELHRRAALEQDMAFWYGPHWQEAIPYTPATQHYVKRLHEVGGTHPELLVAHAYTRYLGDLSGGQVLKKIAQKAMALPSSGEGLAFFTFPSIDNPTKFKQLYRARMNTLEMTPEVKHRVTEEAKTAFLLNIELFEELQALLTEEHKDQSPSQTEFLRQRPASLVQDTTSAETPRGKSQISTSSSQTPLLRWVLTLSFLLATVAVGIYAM
Assay: HO enzymatic activity, rat spleen microsomal fraction (CO formation from methemalbumin)
Type: biochemical
Conditions: IC50 HO-1 (rat spleen/μM), average ± SD of replicate experiments
Protocol: Incubations for HO activity analysis were done under conditions for which the rate of CO formation (pmol CO×min^−1×mg protein^−1) was linear with respect to time and microsomal protein concentration. […] The values on the abscissa represent the decimal logarithm of the inhibitor's concentration (in μM), whereas the values of the activity on the ordinate are expressed as a percentage of the control experiments without inhibitor. […]
Structures can show the parent of a compound that is named as a salt.

compound	system-under-test	IC50
CC(C)(C(=O)c1ccccc1)n1ccnc1	HO-1 (rat spleen) (Rattus norvegicus, UniProt P06762)	> 100 µM
c1ccc(C2(Cn3cncn3)OCCO2)cc1 [QC-254, hydrochloride]	HO-1 (rat spleen) (Rattus norvegicus, UniProt P06762)	144 µM
c1ccc(C2(Cn3ccnc3)OCCO2)cc1 [QC-246, hydrochloride]	HO-1 (rat spleen) (Rattus norvegicus, UniProt P06762)	32 µM
O=C(Cn1ccnc1)c1ccccc1 [QC-141, hydrochloride]	HO-1 (rat spleen) (Rattus norvegicus, UniProt P06762)	28 µM
O=C(Cn1ccnc1)c1ccc(Cl)cc1 [QC-142, hydrochloride]	HO-1 (rat spleen) (Rattus norvegicus, UniProt P06762)	4 µM
O=C(Cn1cncn1)c1ccccc1 [QC-157, hydrochloride]	HO-1 (rat spleen) (Rattus norvegicus, UniProt P06762)	12 µM
Brc1ccc(CCCCn2ccnc2)cc1 [QC-199, hydrochloride]	HO-1 (rat spleen) (Rattus norvegicus, UniProt P06762)	0.25 µM
Cc1ccc(C(=O)Cn2ccnc2)cc1 [QC-165, hydrochloride]	HO-1 (rat spleen) (Rattus norvegicus, UniProt P06762)	17 µM
O=C(Cn1cncn1)c1ccc(Cl)cc1 [QC-158, hydrochloride]	HO-1 (rat spleen) (Rattus norvegicus, UniProt P06762)	2.2 µM
O=C(Cn1ccnc1)c1ccc(Br)cc1 [QC-161, hydrochloride]	HO-1 (rat spleen) (Rattus norvegicus, UniProt P06762)	3.2 µM
